- SYSTEM_UNDER_TEST: Heat shock protein HSP90 (Homo sapiens, UniProt P07900+P08238)
- TEST_NAME: Inhibition of HSP90 (unknown origin) assessed as HER2 degradation by cell-based assay
MEASUREMENT_NAME: log10 of IC50 (log10 of the value in nM)

- STRUCTURE: "CCNC(=O)c1noc(-c2cc(C(C)C)c(O)cc2O)c1-c1ccn(C(C)C)n1"
  VALUE: 1.15
- STRUCTURE: "CCNC(=O)c1noc(-c2cc(C(C)C)c(O)cc2O)c1-c1cn[nH]c1"
  VALUE: 1.11
- STRUCTURE: "CCNC(=O)c1noc(-c2cc(C(C)C)c(O)cc2O)c1-c1cc(CF)no1"
  VALUE: 1.43
- STRUCTURE: "CCNC(=O)c1noc(-c2cc(C(C)C)c(O)cc2O)c1-c1cc(CN)no1"
  VALUE: 2.23
- STRUCTURE: "CCNC(=O)c1noc(-c2cc(C(C)C)c(O)cc2O)c1-c1ccn(CC)n1"
  VALUE: 1.08
- STRUCTURE: "CCNC(=O)c1noc(-c2cc(C(C)C)c(O)cc2O)c1-c1cc(COCC(N)=O)no1"
  VALUE: 1.70
- STRUCTURE: "CCNC(=O)c1noc(-c2cc(C(C)C)c(O)cc2O)c1-c1cc(CO)no1"
  VALUE: 1.62
- STRUCTURE: "CCNC(=O)c1noc(-c2cc(C(C)C)c(O)cc2O)c1-c1cnn(C)c1"
  VALUE: 1.28
- STRUCTURE: "CCNC(=O)c1noc(-c2cc(C(C)C)c(O)cc2O)c1-c1cc(CN(C)C)no1"
  VALUE: 1.52
- STRUCTURE: "CCNC(=O)c1noc(-c2cc(C(C)C)c(O)cc2O)c1-c1cc(C(=O)NC)no1"
  VALUE: 1.38
